Molecular target: Sphingosine 1-phosphate receptor 3 (Homo sapiens)
Assay: S1P3 receptor antagonists, retest, confirmation, cell-based (AID 1429);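 further: 0% = S1P-stimulated wells and 100% = unstimulated DMSO-only wells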
Settings: CHO S1P3 NFAT-BLA reporter, FRET, antagonist mode; at 4.98 µM; active compounds read high
Some of the results follow.
Measured inhibition values are reported for all entries that follow.
endpoint: inhibition (%)

molecule: CC(=O)c1c(C)[nH]c(C(=O)COC(=O)c2cccc(S(=O)(=O)N(C)c3ccccc3)c2)c1C
endpoint: inhibition
measurement: 10.9
--
molecule: O=C(N/N=C/c1coc2ccccc2c1=O)c1cc2ccccc2o1
endpoint: inhibition
measurement: -18.6
--
molecule: CC(C)Oc1ccccc1C(=O)NC(CO)C(=O)O (stereo unspecified)
endpoint: inhibition
measurement: -23.6
--
molecule: Cc1ccc(NC(=O)CN(C)CC(=O)Nc2cccc(F)c2)cc1[N+](=O)[O-]
endpoint: inhibition
measurement: 12.6
--
molecule: Nc1c(C(=O)c2cccs2)sc2nsc(SCCN3CCCCC3)c12
endpoint: inhibition
measurement: 18.8
--
molecule: CSc1ccc(CN(C)CC(=O)NCc2ccc(F)cc2)cc1
endpoint: inhibition
measurement: -9.96
